I'd appreciate it if you could supply Population Mitochondria Different-Phenotype (%) values for the items below.
Tested on: U2OS
assay comment: Multiplex assay against U2OS
Format: toxicity, cell-based
test settings: human, 12 h, 1 µM, compound concentration 1 uM, replicate 1
Non-standard residues stand in square brackets, D forms with d. Residues, ends and D or L forms follow the SMILES beside them.
The reply should be a number in %, with the unit left off.

## Input Return Population Mitochondria Different-Phenotype (%) (reported value) for this molecule: COc1cc2nc(N3CCN(C(=O)c4ccco4)CC3)nc(N)c2cc1OC.Cl [PRAZOSIN HYDROCHLORIDE]
## Output 2

## Input // fetch Population Mitochondria Different-Phenotype (%) given entry "CSc1nc(NC2CCCC2)c([N+](=O)[O-])c(NC2CCCC2)n1"
## Output 3

## Input Look up Population Mitochondria Different-Phenotype (%) of O=C(NCCNCC(O)COc1ccc(O)cc1)N1CCOCC1.O=C(NCCNCC(O)COc1ccc(O)cc1)N1CCOCC1.O=C(O)/C=C/C(=O)O (configuration not stated) [XAMOTEROL FUMARATE] and report it.
## Output 1

## Input # return recorded Population Mitochondria Different-Phenotype (%) for input "CCc1nn2c(C)cc(C)nc2c1Cc1ccc(-c2nnc(C3CCNCC3)o2)cc1"
## Output 10

## Input Complete the entry with Population Mitochondria Different-Phenotype (%) for "C=CCN1C[C@H](C(=O)N(CCCN(C)C)C(=O)NCC)C[C@@H]2c3cccc4[nH]cc(c34)C[C@H]21"
## Output 1

## Input Specify Population Mitochondria Different-Phenotype (%) for CC(C)C[C@@H]1NC(=O)[C@@H](C(C)C)NC(=O)[C@@H]2CCCN2C(=O)[C@@H](CC(=O)O)NC(=O)[C@@H](Cc2c[nH]c3ccccc23)NC1=O [BQ-123] (cyclo(L[dW][dD]P[dV])) and stop.
## Output 1

## Input Report measured Population Mitochondria Different-Phenotype (%); entry is "COc1c(Nc2ccc(S(C)(=O)=O)nc2C)ncnc1OC1CCN(C(=O)OC(C)C)CC1"
## Output 1

## Input // Input: "COCCn1c(C)c(C)s/c1=N\C(=O)C1C(C)(C)C1(C)C" . Output its Population Mitochondria Different-Phenotype (%) only.
## Output 1

## Input Give recorded Population Mitochondria Different-Phenotype (%). "COc1cc(OC2CCN(C(C)=O)CC2)ccc1C(=O)N1CCC(N2C(=O)OCc3ccccc32)CC1"
## Output 3

## Input Given CN(C)C/C=C/C(=O)Nc1ccc(C(=O)N2CCCC(Nc3ncc(Cl)c(-c4c[nH]c5ccccc45)n3)C2)cc1 (configuration not stated) , respond with its Population Mitochondria Different-Phenotype (%).
## Output 3

## Input Tell me Population Mitochondria Different-Phenotype (%) reported for Cc1ccc(OCC(O)C(C)NC(C)C)c2c1CCC2.Cl (configuration not stated)
## Output 3

## Input Complete the entry with Population Mitochondria Different-Phenotype (%) for "N[C@](CC1c2ccccc2Oc2ccccc21)(C(=O)O)[C@H]1C[C@@H]1C(=O)O"
## Output 2

## Input // fetch Population Mitochondria Different-Phenotype (%) given entry "O=c1ccc2ccc(OCCCCN3CCN(c4cccc5sccc45)CC3)cc2[nH]1"
## Output 19

## Input For the molecule "Cn1cc(C(=O)OCC2CCN(CCNS(C)(=O)=O)CC2)c2ccccc21" , report Population Mitochondria Different-Phenotype (%).
## Output 4

## Input Answer with reported Population Mitochondria Different-Phenotype (%) of O=C(O)CCC/C=C\CC1C(O)CC(O)C1/C=C/C(O)COc1cccc(Cl)c1 (configuration not stated)
## Output 0

## Input Item COCCCN1CCC(NC(=O)c2cc(Cl)c(N)c3c2OCC3)CC1 [PRUCALOPRIDE] : provide Population Mitochondria Different-Phenotype (%)
## Output 3

## Input For "S=C(NCCCc1c[nH]cn1)NCCCN(Cc1ccc(Cl)c(Cl)c1)c1ccc(Br)cn1" , write its Population Mitochondria Different-Phenotype (%).
## Output 2

The origin of these recorded values is ChEMBL document CHEMBL5058577.
